target-or-test-system: human P2X3 receptor (Homo sapiens (Human), UniProt P56373)
Sequence (P56373 whole entry): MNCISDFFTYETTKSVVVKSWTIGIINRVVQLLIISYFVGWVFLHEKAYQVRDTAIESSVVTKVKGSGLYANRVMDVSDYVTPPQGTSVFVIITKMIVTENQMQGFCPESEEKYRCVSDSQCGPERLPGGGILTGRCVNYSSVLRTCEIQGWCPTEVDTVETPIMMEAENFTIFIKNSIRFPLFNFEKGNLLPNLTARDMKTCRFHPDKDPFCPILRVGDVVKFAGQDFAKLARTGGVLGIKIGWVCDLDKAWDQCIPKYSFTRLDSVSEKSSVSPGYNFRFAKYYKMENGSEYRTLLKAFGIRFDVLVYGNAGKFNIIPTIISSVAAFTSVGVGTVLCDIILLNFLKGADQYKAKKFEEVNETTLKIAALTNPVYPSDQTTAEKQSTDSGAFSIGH
method-notes: Evaluation of human P2X3 receptor inhibitory activity (Fluo-3 calcium fluorescence, FDSS 3000, ATP stimulation)
Type: cell-based
test-settings: C6BU-1 cells stably expressing human P2X3 receptor, Fluo-3 fluorescence, FDSS 3000
// boundary case: IC50 equal to 0.01 µM maps to false (0); strictly smaller maps to true (1)

| molecule | class |
| --- | --- |
| CCn1c(=O)[nH]/c(=N\c2ccc(Oc3ccnc(C(=O)NC)c3)cc2)n(Cc2ccc(Cl)cc2)c1=O [Compound I-1717] | true (1) |
| Cc1ccc(Cn2c(=O)n(C[C@H](C)C(=O)O)c(=O)[nH]/c2=N\c2ccc(C=C3CCCC3)cc2)cc1 [Compound I-1098] | false (0) |
| Cc1ccc(Cn2c(=O)n(CC(C)(C)C(=O)O)c(=O)[nH]/c2=N\c2ccc3nc(C)sc3c2)cc1 [Compound I-1577] | true (1) |
| CCCc1nc2ccc(/N=c3\[nH]c(=O)n(CCC(=O)O)c(=O)n3Cc3ccc(C)cc3)cc2s1 [Compound I-1560] | false (0) |
| COC(=O)CN1CCC(n2c(=O)[nH]/c(=N\c3ccc(OC(C)C)c(C)c3)n(Cc3ccc(Cl)cc3)c2=O)CC1 [Compound I-1639] | false (0) |
| COC(=O)[C@@H](C)Cn1c(=O)[nH]/c(=N\c2ccc(OC(C)C)c(C#N)c2)n(Cc2ccc(Cl)cc2)c1=O [Compound I-0953] | false (0) |
| CC(=O)NCCn1c(=O)[nH]/c(=N\c2ccc(O[C@H](C)C(F)(F)F)cc2)n(Cc2ccc(Cl)cc2)c1=O [Compound I-1617] | false (0) |

* * *

target-or-test-system: UniProt:P56373
method-notes: Evaluation of human P2X3 receptor inhibitory activity (Fluo-3 calcium fluorescence, FDSS 3000, ATP stimulation)
Assay type: cell-based
test-settings: human P2X3 receptor, Test Example 1
pIC50: −log10 of the molar value.
# pIC50 per entry
value-type: pIC50

| compound | reported-value |
| --- | --- |
| CCn1c(=O)[nH]/c(=N\c2ccc(Oc3cccc(CCC(=O)OC)c3)cc2)n(Cc2ccc(Cl)cc2)c1=O | 7.21 |
| CC(CO)(CO)Cn1c(=O)[nH]/c(=N\c2ccc(Oc3cccc(F)n3)cc2)n(Cc2ccc(F)cc2)c1=O | 8.10 |
| CCn1c(=O)[nH]/c(=N\c2ccc3nc(N(C)C)sc3c2)n(Cc2ccc(Cl)cc2)c1=O | 6.48 |
| CC(C)Oc1ccc(/N=c2\[nH]c(=S)n(C(C)C)c(=O)n2Cc2ccc(Cl)cc2)cc1Cl | 6.82 |
| COC(=O)[C@@H](C)Cn1c(=O)[nH]/c(=N\c2ccc(C3CC3)c(Cl)c2)n(Cc2ccc(C)cc2)c1=O | 6.97 |
| CNC(=O)Cn1c(=O)[nH]/c(=N\c2ccc(Oc3cnsn3)cc2)n(Cc2ccc(Cl)cc2)c1=O | 7.89 |
| Cc1ccc(Cn2c(=O)n(CCC(=O)O)c(=O)[nH]/c2=N\c2ccc(Oc3ncccn3)cc2)cc1 | 7.66 |
| COC(=O)c1cncc(Oc2ccc(/N=c3\[nH]c(=O)n(C4CC4)c(=O)n3Cc3ccc(Cl)cc3)cc2)c1 | 8.52 |
| Cc1ccc(/N=c2\[nH]c(=O)n(C[C@H](C)C(=O)O)c(=O)n2Cc2ccc(Cl)cc2)cc1C(F)(F)F | 6.74 |
| CCn1c(=O)[nH]/c(=N\c2ccc(Oc3ccnc(NCCO)c3)cc2)n(Cc2ccc(Cl)cc2)c1=O | 7.96 |
| COC(=O)[C@@H](C)Cn1c(=O)[nH]/c(=N\c2ccc(OCC3CC3)cc2)n(Cc2ccc(C)cc2)c1=O | 7.74 |
| CCn1c(=O)[nH]/c(=N\c2ccc(Oc3cccc(C#N)c3)cc2)n(Cc2ccc(Cl)cc2)c1=O | 8.40 |
| O=c1[nH]/c(=N\c2ccc(Oc3ccon3)cc2)n(Cc2ccc(F)cc2)c(=O)n1CCCOC1CCCCO1 (centres unmarked) | 7.68 |
| C=COc1ccc(/N=c2\[nH]c(=O)n(C[C@H](C)C(=O)OC)c(=O)n2Cc2ccc(C)cc2)cc1Cl | 8.30 |

* * *

# pIC50 per entry
target-or-test-system: human P2X3 receptor (Homo sapiens (Human), UniProt P56373)
method-notes: Evaluation of human P2X3 receptor inhibitory activity (Fluo-3 calcium fluorescence, FDSS 3000, ATP stimulation)
Assay type: cell-based
test-settings: C6BU-1 cells stably expressing human P2X3 receptor, Fluo-3 fluorescence, FDSS 3000
pIC50: −log10 of the molar value.

| compound | target-or-test-system | pIC50 |
| --- | --- | --- |
| CCc1cc(/N=c2\[nH]c(=O)n(C[C@H](C)C(=O)OC)c(=O)n2Cc2ccc(C)cc2)ccc1OC(C)C [Compound I-0908] | human P2X3 receptor (Homo sapiens (Human), UniProt P56373) | 7.89 |
| CC(C)Cn1c(=O)oc2cc(Nc3nc(=O)n(C(C)C)c(=O)n3Cc3ccc(Cl)cc3)ccc21 [Compound I-0268] | human P2X3 receptor (Homo sapiens (Human), UniProt P56373) | 6.06 |
| Cc1nc2ccc(/N=c3\[nH]c(=O)n(CCCO)c(=O)n3Cc3ccc(Cl)cc3)cc2s1 [Compound I-1619] | human P2X3 receptor (Homo sapiens (Human), UniProt P56373) | 8.22 |
| C[C@@H](C(=O)O)[C@H](C)n1c(=O)[nH]/c(=N\c2ccc3c(c2)sc(=O)n3CC(F)(F)F)n(Cc2ccc(Cl)cc2)c1=O [Compound I-1780] | human P2X3 receptor (Homo sapiens (Human), UniProt P56373) | 6.03 |
| Cc1cc(/N=c2\[nH]c(=O)n(CC(CO)CO)c(=O)n2Cc2ccc(Cl)cc2)ccc1OC(C)C [Compound I-1905] | human P2X3 receptor (Homo sapiens (Human), UniProt P56373) | 8.30 |
| CCCCCOc1ccc(/N=c2\[nH]c(=O)n(CCC(=O)OCC)c(=O)n2Cc2ccc(C)cc2)cc1 [Compound I-1058] | human P2X3 receptor (Homo sapiens (Human), UniProt P56373) | 7.37 |
| C[C@@H](C(=O)O)[C@H](C)n1c(=O)[nH]/c(=N\c2ccc3oc(-c4ccccc4)nc3c2)n(Cc2ccc(Cl)cc2)c1=O [Compound I-1814] | human P2X3 receptor (Homo sapiens (Human), UniProt P56373) | 6.52 |

* * *

# pIC50 per entry
target-or-test-system: human P2X3 receptor (Homo sapiens (Human), UniProt P56373)
method-notes: Evaluation of human P2X3 receptor inhibitory activity (Fluo-3 calcium fluorescence, FDSS 3000, ATP stimulation)
Type: cell-based
test-settings: C6BU-1 cells stably expressing human P2X3 receptor
pIC50: −log10 of the molar value.

| smiles-representation | target-or-test-system | pIC50 |
| --- | --- | --- |
| Cc1ccc(Cn2c(=O)n(C[C@H](C)C(=O)O)c(=O)[nH]/c2=N\c2ccc3nc(C)ccc3c2)cc1 | human P2X3 receptor (Homo sapiens (Human), UniProt P56373) | 7.48 |
| CCCOc1ccc(/N=c2\[nH]c(=O)n([C@H](C)[C@H](C)C(=O)OC)c(=O)n2Cc2ccc(C)cc2)cc1 | human P2X3 receptor (Homo sapiens (Human), UniProt P56373) | 7.21 |
| COC(=O)[C@@H](C)Cn1c(=O)[nH]/c(=N\c2ccc(CC(C)C)c(OC)c2)n(Cc2ccc(C)cc2)c1=O | human P2X3 receptor (Homo sapiens (Human), UniProt P56373) | 7.68 |
| CC(C)Oc1ccc(/N=c2\[nH]c(=O)n(C/C(N)=N/O)c(=O)n2Cc2ccc(Cl)cc2)cc1F | human P2X3 receptor (Homo sapiens (Human), UniProt P56373) | 7.42 |
| CC(C)Oc1ccc(/N=c2\[nH]c(OCC(=O)O)nc(=O)n2Cc2ccc(Cl)cc2)cc1F | human P2X3 receptor (Homo sapiens (Human), UniProt P56373) | 6.84 |
| Cc1ccc(Cn2c(=O)[nH]c(=O)[nH]/c2=N\c2ccc(Oc3cncc(C(=O)O)c3)cc2)cc1 | human P2X3 receptor (Homo sapiens (Human), UniProt P56373) | 7.47 |
| CCn1c(=O)[nH]/c(=N\c2ccc(Oc3ccc(C(=O)OC)nc3)cc2)n(Cc2ccc(C)cc2)c1=O | human P2X3 receptor (Homo sapiens (Human), UniProt P56373) | 8.70 |

* * *

target-or-test-system: human P2X3 receptor (Homo sapiens (Human), UniProt P56373)
method-notes: Evaluation of human P2X3 receptor inhibitory activity (Fluo-3 calcium fluorescence, FDSS 3000, ATP stimulation);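 note: stimulus was 50 nM ATP with fluorescence followed for 3 min, and the response per well was peak post-ATP fluorescence divided by the reading at measurement start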
Assay type: cell-based
test-settings: human P2X3 receptor, Test Example 1
Consider the reported IC50 of an entry and match it to a band in bottom bin (below 0.007 µM), middle bin (0.007 µM to below 0.05 µM), top bin (0.05 µM or more)

| smiles-representation | target-or-test-system | class |
| --- | --- | --- |
| O=c1[nH]/c(=N\c2ccc(Oc3nccs3)cc2)n(Cc2ccc(Cl)cc2)c(=O)n1C(CO)CO | human P2X3 receptor (Homo sapiens (Human), UniProt P56373) | top bin |
| CCOC(=O)CCn1c(=O)[nH]/c(=N\c2ccc(Oc3ncccn3)cc2)n(Cc2ccc(Cl)cc2)c1=O | human P2X3 receptor (Homo sapiens (Human), UniProt P56373) | bottom bin |
| CCn1c(=O)[nH]/c(=N\c2ccc(Oc3ccc(C(=O)O)cc3)nc2)n(Cc2ccc(Cl)cc2)c1=O | human P2X3 receptor (Homo sapiens (Human), UniProt P56373) | top bin |
| CCn1c(=O)[nH]/c(=N\c2ccc(Oc3cc(C)nn3C)cc2)n(Cc2ccc(Cl)cc2)c1=O | human P2X3 receptor (Homo sapiens (Human), UniProt P56373) | top bin |
| O=c1[nH]/c(=N\c2ccc(Oc3ncccc3F)cc2)n(Cc2ccc(Cl)cc2)c(=O)n1CC(CO)CO | human P2X3 receptor (Homo sapiens (Human), UniProt P56373) | bottom bin |
| CCn1c(=O)[nH]/c(=N\c2ccc(Oc3cccc(/C=C/C(=O)OC)c3)cc2)n(Cc2ccc(Cl)cc2)c1=O | human P2X3 receptor (Homo sapiens (Human), UniProt P56373) | middle bin |
| CCc1cc2cc(/N=c3\[nH]c(=O)n(CC4COC(C)(C)OC4)c(=O)n3Cc3ccc(Cl)cc3)ccc2o1 | human P2X3 receptor (Homo sapiens (Human), UniProt P56373) | bottom bin |
| CCOC(=O)Cn1c(=O)[nH]/c(=N\c2ccc(Oc3cnsn3)cc2)n(Cc2ccc(Cl)cc2)c1=O | human P2X3 receptor (Homo sapiens (Human), UniProt P56373) | bottom bin |
| CC[C@@H](Cn1c(=O)[nH]/c(=N\c2ccc(OC(C)C)c(C)c2)n(Cc2ccc(C)cc2)c1=O)C(=O)O | human P2X3 receptor (Homo sapiens (Human), UniProt P56373) | top bin |
| Cc1nc2ccc(/N=c3\[nH]c(=O)n(CC(CO)CO)c(=O)n3Cc3ccc(Cl)cc3)cc2s1 | human P2X3 receptor (Homo sapiens (Human), UniProt P56373) | bottom bin |
| COC(=O)[C@@H](C)Cn1c(=O)[nH]/c(=N\c2ccc(C)c(C(F)(F)F)c2)n(Cc2ccc(Cl)cc2)c1=O | human P2X3 receptor (Homo sapiens (Human), UniProt P56373) | top bin |
| NC(=O)c1ccc(Oc2ccc(/N=c3\[nH]c(=O)n(C[C@H](O)CO)c(=O)n3Cc3ccc(Cl)cc3)cc2)cc1 | human P2X3 receptor (Homo sapiens (Human), UniProt P56373) | bottom bin |
| Cc1cc(/N=c2\[nH]c(=O)n(C[C@H](C)C(=O)O)c(=O)n2Cc2ccc(Cl)cc2)ccc1OCC(C)C | human P2X3 receptor (Homo sapiens (Human), UniProt P56373) | top bin |
| O=c1[nH]/c(=N\c2ccc(Oc3ccon3)c(F)c2)n(Cc2ccc(Cl)cc2)c(=O)n1C[C@H](O)CO | human P2X3 receptor (Homo sapiens (Human), UniProt P56373) | bottom bin |
| Cn1c(=O)[nH]/c(=N\c2ccc(Oc3cc(C(=O)O)ncn3)cc2)n(Cc2ccc(Cl)cc2)c1=O | human P2X3 receptor (Homo sapiens (Human), UniProt P56373) | middle bin |
| Cn1c(=O)[nH]/c(=N\c2ccc(Oc3cnc(C(N)=O)cn3)cc2)n(Cc2ccc(Cl)cc2)c1=O | human P2X3 receptor (Homo sapiens (Human), UniProt P56373) | middle bin |
| NC(=O)c1cccc(Oc2ccc(/N=c3\[nH]c(=O)n(CCC(=O)O)c(=O)n3Cc3ccc(Cl)cc3)cc2)n1 | human P2X3 receptor (Homo sapiens (Human), UniProt P56373) | middle bin |
| CCn1c(=O)[nH]/c(=N\c2ccc(Oc3ccnc(NCC(=O)NC)c3)cc2)n(Cc2ccc(Cl)cc2)c1=O | human P2X3 receptor (Homo sapiens (Human), UniProt P56373) | middle bin |
| CCOC(=O)CCCn1c(=O)[nH]/c(=N\c2ccc(OCC)c(Cl)c2)n(Cc2ccc(C)cc2)c1=O | human P2X3 receptor (Homo sapiens (Human), UniProt P56373) | middle bin |
| COCc1c(Cl)cc(/N=c2\[nH]c(=O)n(C[C@H](C)C(=O)O)c(=O)n2Cc2ccc(C)cc2)cc1Cl | human P2X3 receptor (Homo sapiens (Human), UniProt P56373) | middle bin |
| CCn1c(=O)[nH]/c(=N\c2ccc3nc(O)sc3c2)n(Cc2ccc(Cl)cc2)c1=O | human P2X3 receptor (Homo sapiens (Human), UniProt P56373) | middle bin |
| CCn1c(=O)[nH]/c(=N\c2cccc(Oc3nccs3)c2)n(Cc2ccc(Cl)cc2)c1=O | human P2X3 receptor (Homo sapiens (Human), UniProt P56373) | top bin |
| CCn1c(SC)n/c(=N\c2ccc(Oc3cncc(C(=O)OC)c3)cc2)n(Cc2ccc(Cl)cc2)c1=O | human P2X3 receptor (Homo sapiens (Human), UniProt P56373) | top bin |
| Cc1nsc(Oc2ccc(/N=c3\[nH]c(=O)n(C[C@H](O)CO)c(=O)n3Cc3ccc(Cl)cc3)cc2F)n1 | human P2X3 receptor (Homo sapiens (Human), UniProt P56373) | bottom bin |
| O=c1[nH]/c(=N\c2ccc(Oc3ccsn3)cc2)n(Cc2ccc(Cl)cc2)c(=O)n1C[C@H](O)CO | human P2X3 receptor (Homo sapiens (Human), UniProt P56373) | middle bin |

The measured values listed here are drawn from patent US9718790B2.
